Tested on: L6
Assay: Cytotoxicity against rat L6 cells up to 30 uM after 24 hrs by MTT assay
Assay type: cell-based
Settings: l6, 24 h
ASSAY ENDPOINT: Activity

[[record]]
molecule_smiles = "CC[C@H](C(C)C)[C@H](O)[C@@H](O)[C@@H](C)[C@H]1CC[C@H]2[C@@H]3COC(=O)[C@H]4C[C@H](F)CC[C@]4(C)[C@H]3CC[C@]12C"
result = "Non-toxic"

[[record]]
molecule_smiles = "CC(C)[C@@H](C)[C@@H](O)[C@H](O)[C@@H](C)[C@H]1CC[C@H]2[C@@H]3COC(=O)[C@H]4C[C@H](O)[C@H](O)C[C@]4(C)[C@H]3CC[C@]12C"
result = "Non-toxic"

[[record]]
molecule_smiles = "CC(C)[C@@H](C)[C@H](O)[C@@H](O)[C@@H](C)[C@H]1CC[C@H]2[C@@H]3COC(=O)[C@H]4C[C@H](O)[C@H](O)C[C@]4(C)[C@H]3CC[C@]12C"
result = "Non-toxic"


Attribution: ChEMBL document CHEMBL1799978
